# assayProcedure: Acute oral toxicity in mouse assessed as signs of gross toxicity measured once daily for 14 days
# experimentalConditions: in vivo, time 14 day
assayReadout: LD50 at 336 h

• Cc1ncc([N+](=O)[O-])n1CC(C)OC(=O)c1ccc(/C=N/c2ccc(S(=O)(=O)NC(=N)N)cc2)cc1 (stereo not drawn) = > 5000 mg/kg
• Cc1ccnc(NS(=O)(=O)c2ccc(/N=C/c3ccc(C(=O)OCCn4c([N+](=O)[O-])cnc4C)cc3)cc2)n1 = > 5000 mg/kg
• Cc1cc(C)nc(NS(=O)(=O)c2ccc(/N=C/c3ccc(C(=O)OCCn4c([N+](=O)[O-])cnc4C)cc3)cc2)n1 = > 5000 mg/kg
